methodNotes: Selectivity index, ratio of IC50 for human ARPE19 cells to IC50 for human HCT116 cells
Type: toxicity
condition: ARPE19 cells versus HCT116 cells, read-out: Ratio IC50
For each entry below, report its selectivity ratio value.
Answers are plain numbers.

A selection of reference data follows.
>>> df
                          chemicalstructure         resulttype  readoutnumber
0  CC(C)CCc1sc(NC(=O)c2cc(NC(=O)c3ccc(/C=C/c4ccc(F)cc4)nc3)cn2C)nc1C(=O)NCCCN(C)C  selectivity ratio           0.71
1  CC(C)CCc1sc(NC(=O)c2cc(NC(=O)c3cc(NC(=O)c4ccc(C(F)(F)F)cc4)cn3C)cn2C)nc1C(=O)NCCCN(C)C  selectivity ratio           1.63
2  CC(C)CCc1sc(NC(=O)c2cc(NC(=O)c3ccc(/C=C/c4ccc(F)cc4)cc3)cn2C)nc1C(=O)NCCCN(C)C  selectivity ratio           1.16
3  CC(C)CCc1sc(NC(=O)c2cc(NC(=O)c3cc(NC(=N)c4cccc(Cl)c4)cn3C)cn2C)nc1C(=O)NCCCN(C)C  selectivity ratio           2.78
4  CC(C)CCc1sc(NC(=O)c2cc(NC(=O)c3cc(NC(=N)c4cccc(F)c4)cn3C)cn2C)nc1C(=O)NCCN1CCOCC1  selectivity ratio           1.81
5  CC(C)CCc1sc(NC(=O)c2cc(NC(=O)c3ccc(/C=C/c4ccc(C(F)(F)F)cc4)cc3)cn2C)nc1C(=O)NCCCN(C)C  selectivity ratio           0.66

I need selectivity ratio for every entry listed below, if you could help.
1. CC(C)CCc1sc(NC(=O)c2cc(NC(=O)c3cc(NC(=N)c4cccc(F)c4)cn3C)cn2C)nc1C(=O)NCCCN(C)C
2. CC(C)CCc1sc(NC(=O)c2cc(NC(=O)c3cc(NC(=O)c4cccc(F)c4)cn3C)cn2C)nc1C(=O)NCCCN(C)C
3. CC(C)CCc1sc(NC(=O)c2cc(NC(=O)c3cc(NC(=N)c4ccc(Cl)cc4)cn3C)cn2C)nc1C(=O)NCCN1CCOCC1

Marked response:
1. 3.89
2. 1.53
3. 1.1

I need selectivity ratio for every entry listed below, if you could help.
1. CC(C)CCc1sc(NC(=O)c2cc(NC(=O)c3cc(NC(=N)c4ccc(F)cc4)cn3C)cn2C)nc1C(=O)NCCN1CCOCC1
2. CC(C)CCc1sc(NC(=O)c2cc(NC(=O)c3cc(NC(=N)c4ccc(F)cc4)cn3C)cn2C)nc1C(=O)NCCCN(C)C

Marked response:
3.53
1.42

----------
methodNotes: Selectivity index, ratio of IC50 for human ARPE19 cells to IC50 for human A2780 cells
Assay type: toxicity
condition: ARPE19 cells versus A2780 cells, read-out: Ratio IC50
For each entry below, report its selectivity ratio value.

A selection of reference data follows.
                          chemicalstructure         resulttype  result
0  COc1cccc(C(=N)Nc2cc(C(=O)Nc3cc(C(=O)Nc4cc(C(=O)NCCCN(C)C)n(C)c4)n(C)c3)n(C)c2)c1  selectivity ratio     > 1
1  CC(=O)Nc1cc(C(=O)Nc2cc(C(=O)Nc3cc(C(=O)NCCCN(C)C)n(C)c3)n(C)c2)n(C)c1  selectivity ratio     > 1

I need selectivity ratio for every entry listed below, if you could help.
1. CN(C)CCCNC(=O)c1cc(NC(=O)c2cc(NC(=O)c3cc(NC(=N)c4ccccc4)cn3C)cn2C)cn1C
2. COc1cccc(C(=N)Nc2cc(C(=O)Nc3cc(C(=O)Nc4nc(C(=O)NCCCN(C)C)c(CCC(C)C)s4)n(C)c3)n(C)c2)c1
3. CC(=O)Nc1cc(C(=O)Nc2cc(C(=O)Nc3nc(C(=O)NCCCN(C)C)c(CCC(C)C)s3)n(C)c2)n(C)c1
4. CC(C)CCc1sc(NC(=O)c2cc(NC(=O)c3cc(NC(=N)c4ccc(Cl)cc4)cn3C)cn2C)nc1C(=O)NCCN1CCOCC1
5. CC(C)CCc1sc(NC(=O)c2cc(NC(=O)c3ccc(/C=C/c4cccc(F)c4)cc3)cn2C)nc1C(=O)NCCCN(C)C
6. CC(C)CCc1sc(NC(=O)c2cc(NC(=O)c3cc(NC(=N)c4ccccc4)cn3C)cn2C)nc1C(=O)NCCCN(C)C

Marked response:
1: > 1; 2: > 11.2; 3: > 6.85; 4: 1.32; 5: 1.76; 6: > 7.46

Exam item: GET /values?readout=selectivity ratio&item= CC(C)CCc1sc(NC(=O)c2cc(NC(=O)c3cc(NC(=N)c4cccc(F)c4)cn3C)cn2C)nc1C(=O)NCCN1CCOCC1
Marked response: 0.81
